assay: Primary qHTS for delayed death inhibitors of the malarial parasite plastid, 96 hour incubation; conditions: P. falciparum luciferase reporter growth; series mostly up to 28.7 µM
Screen size: about 320,000 compounds; about 22,000 (6.9%) were called active. Inconclusive results (about 27%) are left out. Calls come from the whole dose curve; as a rule, active = well fitted inhibition curve with a large enough effect; inconclusive = small, poorly fitted or top-dose-only effect, or another doubt; inactive = no such curve, though single readings can be large or run the other way. This is one part of a sample in which actives are shown more often than they occur.
Choose one outcome from this list and give only that: active, inactive

Answer briefly: the call reported for O=C(CSc1nc2ccccc2c(=O)n1CCCO)NC1CC1 in this assay.
inactive

Identify the outcome logged in this assay for the compound shown: COc1ccc(CCNc2nc(C)cc(C)n2)cc1OC
inactive

Could you check what this test reported for O=C(CN1CCCCCC1)Nc1ccc(Cl)cc1F ?
inactive

Each compound tested received a call. Report the one for Cc1sc2nc(SCCO)n(-c3ccccc3)c(=O)c2c1C .
active

Any idea what this test logged for CCCCc1nc2cc(C(=O)NCCc3cnn(C)c3)ccc2o1 ?
active

Called result for Cc1cc(OCCCCOc2ccc(C#N)cc2)ccc1[N+](=O)[O-]
inactive

Could you kindly confirm the outcome this assay logged for Cc1sc2nc(SCC(N)=O)n(C)c(=O)c2c1C ?
inactive

GET /call?item= O=C(c1ccc2c(c1)OCO2)N1CCOCC1 returns the recorded outcome of this test.
inactive

# fetch the recorded call for Cn1c(-c2ccc(C(F)(F)F)cc2)cc2onc(-c3ccccc3)c2c1=O here
inactive

Fill in: this test's call for CCOC(=O)C1CCc2nc3ccccc3c(=O)n21 (centres undefined) is ___
inactive

Outcome? CC(C)CCN1CCC(C)(NC(=O)c2ccccc2)C1=O (centres undefined)
inactive

How did this test come out for CCc1ccnc(NC(=O)Nc2ccc(OCc3ccccc3)cc2)c1 ?
inactive

What was the test verdict on CCC(C)[C@H]1COCCS(=O)(=O)N1Cc1ccc(C)cc1 (some centres undefined) ?
inactive

Assay result, entry COc1ccc(Cl)cc1NC(=O)CN(C)CC(=O)Nc1ccc2c(c1)OCO2 — outcome?
inactive

Record lookup: outcome of this test for Cc1cccc(NC(=O)Nc2ccc(OCc3ccccc3)cc2)n1 ?
inactive

Outcome logged for COc1cccc(CNC(=O)Cn2c(=O)oc3cc(S(=O)(=O)N4CCCCC4)ccc32)c1 in this assay:
inactive

# fetch the recorded call for O=C(O)CCn1c(O)c(C=C2N=c3ccccc3=N2)sc1=S here
active

Identify the outcome logged in this assay for the compound shown: CC(C)c1nc2cc(C(=O)NC(C)c3cnn(C)c3)ccc2o1 (centres undefined)
inactive

Given O=C(c1cccc(S(=O)(=O)N2CCOCC2)c1)N1CCOCC1 , state the outcome it received in this test.
inactive

GET /call?item= CC1(C)CC(N2CCN(C(c3ccccc3)c3ccccc3)CC2)=CC(=[N+]2CCCCC2)C1 returns the recorded outcome of this test.
active

Could you please tell me the result logged for COc1ccc(NC(=O)CCCNC(=O)Cn2cnc3sc4c(c3c2=O)CCCC4)cc1OC in this assay?
inactive

Write down the call the test reported for this compound. Item: CCc1cc2c(=O)n(-c3ccccc3)c(SCC(=O)O)nc2s1
inactive

Give the logged outcome of this assay for the following compound: Cc1cc2ccccc2n1CCC(=O)O
inactive

What did the test return for COc1ccc(CCNc2cc(C)nc3c(-c4ccc(Cl)cc4)c(C)nn23)cc1OC ?
active
